- assay_remarks: The compound was tested for the ability to inactivate mouse liver alcohol dehydrogenase in the absence of NAD+K

{"structure": "O=C(O)CCCCCCCNC(=O)CBr", "Rate constant [M⁻¹ s⁻¹]": 0.0817}
{"structure": "O=C(O)CBr", "Rate constant [M⁻¹ s⁻¹]": 0.163}
{"structure": "O=C(CBr)Nc1ccc(-c2ccc(C(=O)O)cc2)cc1", "Rate constant [M⁻¹ s⁻¹]": 0.717}

* * *

- assay_remarks: The compound was tested for the ability to inactivate mouse liver alcohol dehydrogenase in the presence of 1 mM NAD+K

{"structure": "O=C(O)CCCc1ccc(NC(=O)CBr)cc1", "Rate constant (M⁻¹ s⁻¹)": 0.233}
{"structure": "NC(=O)CCCc1ccc(NC(=O)CBr)cc1", "Rate constant (M⁻¹ s⁻¹)": 1}
{"structure": "O=C(CBr)Nc1ccc(-c2ccc(C(=O)O)cc2)cc1", "Rate constant (M⁻¹ s⁻¹)": 0.105}
{"structure": "O=C(CBr)Nc1ccc(Oc2ccc(C(=O)O)cc2)cc1", "Rate constant (M⁻¹ s⁻¹)": 0.183}
